Target: VIM-2 metallo β-lactamase (Pseudomonas aeruginosa, UniProt Q9K2N0)
Experiment: VIM-2 inhibitor FRET-based artefact check, dose response, artefact control for selective VIM-2 inhibitor project, biochemical, FRET readout, CCF2 substrate (AID 1926)
Consider the cut-off 2000 nM. If the recorded IC50 is strictly smaller, the label is t; if not, the label is f.

// known answers, use as guide
compound: COc1ccc(C(=O)C2C(=O)C(=O)N(Cc3ccco3)C2c2cc(OC)ccc2OC)cc1 (configuration not stated)
class-name: f
//
compound: O=C1C(=O)N(Cc2cccnc2)C(c2ccccn2)C1C(=O)c1ccc(F)cc1 (configuration not stated)
class-name: t
//
compound: COc1ccc(OC)c(C=NNC(=O)Cc2c(C)[nH][nH]c2=O)c1
class-name: f
//
compound: O=C1C(=O)N(Cc2cccnc2)C(c2ccccn2)C1C(=O)c1cccs1 (configuration not stated)
class-name: f
//
compound: COc1cc(OC)c(OC)cc1C=NNC(=O)Cc1c(C)[nH][nH]c1=O
class-name: t

Query block: Check if IC50 falls below 2000 nM for COc1ccc(OC)c(C2C(C(=O)c3ccco3)C(=O)C(=O)N2Cc2cccnc2)c1 (configuration not stated) .
Result block: t

Query block: Could you please tell me whether IC50 recorded for O=C1C(=O)N(Cc2cccnc2)C(c2ccccn2)C1C(=O)c1ccccc1 (configuration not stated) is less than 2000 nM?
Result block: f

meta.source: BindingDB's records for doi:10.7270/Q2NS0S90
